# TARGET_SYSTEM: T1, HCoV-229E NTD (17–265 aa) (human coronavirus 229E, UniProt P15423 17-265)
# T1 chain: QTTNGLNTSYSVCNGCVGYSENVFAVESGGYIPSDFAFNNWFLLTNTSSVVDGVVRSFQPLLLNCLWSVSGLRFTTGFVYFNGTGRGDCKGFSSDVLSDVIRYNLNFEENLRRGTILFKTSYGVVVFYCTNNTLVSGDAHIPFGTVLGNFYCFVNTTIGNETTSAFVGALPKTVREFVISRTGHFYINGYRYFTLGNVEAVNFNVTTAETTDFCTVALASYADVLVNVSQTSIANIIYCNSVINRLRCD
# PROTOCOL_DESCRIPTION: SPR
PARAMETER: koff (s⁻¹)
Provide only the numeric value, understood in s⁻¹.

Before answering, review these 2 worked examples.
- BINDER: "Fab B09 (Fab, V domains shown) VH: EVQLVESGGGLVQPGGSLRLSCAASGFNLSYSSIHWVRQAPGKGLEWVAYIYPYYGSTYYADSVKGRFTISADTSKNTAYLQMNSLRAEDTAVYYCARSWSPSSSYPGYGGLDYWGQGTLVTVSS VL: DIQMTQSPSSLSASVGDRVTITCRASQSVSSAVAWYQQKPGKAPKLLIYSASSLYSGVPSRFSGSRSGTDFTLTISSLQPEDFATYYCQQSWSYYGSLFTFGQGTKVEIK"
  OBS_VALUE: 0.00037
- BINDER: "Fab A11 (Fab, V domains shown) VH: EVQLVESGGGLVQPGGSLRLSCAASGFNIYSSYIHWVRQAPGKGLEWVASISSSYGYTYYADSVKGRFTISADTSKNTAYLQMNSLRAEDTAVYYCARGHGWAYVWSSYYPAGAFALDYWGQGTLVTVSS VL: DIQMTQSPSSLSASVGDRVTITCRASQSVSSAVAWYQQKPGKAPKLLIYSASSLYSGVPSRFSGSRSGTDFTLTISSLQPEDFATYYCQQSYALITFGQGTKVEIK"
  OBS_VALUE: 0.004

Consider the additional binder presented here.
Ask | Fill in: koff of Fab A10 (Fab, V domains shown) VH: EVQLVESGGGLVQPGGSLRLSCAASGFNISSYYMHWVRQAPGKGLEWVAYISPYSGYTYYADSVKGRFTISADTSKNTAYLQMNSLRAEDTAVYYCARAHYPYHGSYWGLDYWGQGTLVTVSS VL: DIQMTQSPSSLSASVGDRVTITCRASQSVSSAVAWYQQKPGKAPKLLIYSASSLYSGVPSRFSGSRSGTDFTLTISSLQPEDFATYYCQQAGYVPITFGQGTKVEIK is ___
Reply | 0.0015
